- study.system: MCT1 (Homo sapiens (Human))
- Sequence (P53985 whole entry): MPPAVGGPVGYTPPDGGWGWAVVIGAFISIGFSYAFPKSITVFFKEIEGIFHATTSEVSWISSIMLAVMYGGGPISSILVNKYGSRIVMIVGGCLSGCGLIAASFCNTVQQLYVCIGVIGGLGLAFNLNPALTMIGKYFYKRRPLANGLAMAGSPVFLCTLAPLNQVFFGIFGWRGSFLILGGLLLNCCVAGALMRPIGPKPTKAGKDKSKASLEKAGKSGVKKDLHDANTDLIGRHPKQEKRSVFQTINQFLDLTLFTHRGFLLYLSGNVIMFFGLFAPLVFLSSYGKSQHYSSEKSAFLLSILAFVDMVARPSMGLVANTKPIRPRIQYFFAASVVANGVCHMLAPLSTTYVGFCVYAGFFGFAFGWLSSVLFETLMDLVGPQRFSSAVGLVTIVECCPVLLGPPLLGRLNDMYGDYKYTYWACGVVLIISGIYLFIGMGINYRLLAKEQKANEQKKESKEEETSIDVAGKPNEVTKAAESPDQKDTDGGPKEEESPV
- Sequence (P35613 140-385 partner): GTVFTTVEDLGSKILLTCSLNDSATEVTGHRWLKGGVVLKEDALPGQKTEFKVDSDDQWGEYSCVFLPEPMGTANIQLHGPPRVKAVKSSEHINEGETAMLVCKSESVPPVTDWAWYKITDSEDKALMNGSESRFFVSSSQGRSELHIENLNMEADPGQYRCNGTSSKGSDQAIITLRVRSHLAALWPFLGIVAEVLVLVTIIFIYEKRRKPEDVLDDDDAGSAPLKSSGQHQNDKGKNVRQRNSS
- test.name: Assay 4: MCT1-mediated lactate transport in BT20 breast cancer cells
- Assay type: cell-based
- condition.info: Table 27
assay.metric: IC50 (nM)

CCn1ncc2ccc(-c3cc(COC(C)(C)C(=O)O)nn3-c3cccc4cnn(C)c34)cc21 [Example 165]: 99000
Cn1ncc2cccc(-n3nc(COC(C)(C)C(=O)O)cc3-c3cccc(OC4CC4)c3)c21 [Example 191]: 16000

(P) COc1ccc(-c2cc(COC(C)(C)C(=O)O)nn2Cc2ccccc2Cl)cc1 [Example 127]
(Q) CCOc1cccc(-n2nc(COC(C)(C)C(=O)O)cc2-c2cc(OC)cc(OC)c2)c1 [Example 243]
API: POST /compare with P and Q ; response names the item with higher IC50. Answer with the label corresponding to your selection.
Q
(Q: 78000 nM, P: 15000 nM)
